# TESTED_SYSTEM: LRRK2 WT (Homo sapiens, UniProt Q5S007)
# Construct: purchased Life Technologies PR8604B
# Sequence (Q5S007 whole entry): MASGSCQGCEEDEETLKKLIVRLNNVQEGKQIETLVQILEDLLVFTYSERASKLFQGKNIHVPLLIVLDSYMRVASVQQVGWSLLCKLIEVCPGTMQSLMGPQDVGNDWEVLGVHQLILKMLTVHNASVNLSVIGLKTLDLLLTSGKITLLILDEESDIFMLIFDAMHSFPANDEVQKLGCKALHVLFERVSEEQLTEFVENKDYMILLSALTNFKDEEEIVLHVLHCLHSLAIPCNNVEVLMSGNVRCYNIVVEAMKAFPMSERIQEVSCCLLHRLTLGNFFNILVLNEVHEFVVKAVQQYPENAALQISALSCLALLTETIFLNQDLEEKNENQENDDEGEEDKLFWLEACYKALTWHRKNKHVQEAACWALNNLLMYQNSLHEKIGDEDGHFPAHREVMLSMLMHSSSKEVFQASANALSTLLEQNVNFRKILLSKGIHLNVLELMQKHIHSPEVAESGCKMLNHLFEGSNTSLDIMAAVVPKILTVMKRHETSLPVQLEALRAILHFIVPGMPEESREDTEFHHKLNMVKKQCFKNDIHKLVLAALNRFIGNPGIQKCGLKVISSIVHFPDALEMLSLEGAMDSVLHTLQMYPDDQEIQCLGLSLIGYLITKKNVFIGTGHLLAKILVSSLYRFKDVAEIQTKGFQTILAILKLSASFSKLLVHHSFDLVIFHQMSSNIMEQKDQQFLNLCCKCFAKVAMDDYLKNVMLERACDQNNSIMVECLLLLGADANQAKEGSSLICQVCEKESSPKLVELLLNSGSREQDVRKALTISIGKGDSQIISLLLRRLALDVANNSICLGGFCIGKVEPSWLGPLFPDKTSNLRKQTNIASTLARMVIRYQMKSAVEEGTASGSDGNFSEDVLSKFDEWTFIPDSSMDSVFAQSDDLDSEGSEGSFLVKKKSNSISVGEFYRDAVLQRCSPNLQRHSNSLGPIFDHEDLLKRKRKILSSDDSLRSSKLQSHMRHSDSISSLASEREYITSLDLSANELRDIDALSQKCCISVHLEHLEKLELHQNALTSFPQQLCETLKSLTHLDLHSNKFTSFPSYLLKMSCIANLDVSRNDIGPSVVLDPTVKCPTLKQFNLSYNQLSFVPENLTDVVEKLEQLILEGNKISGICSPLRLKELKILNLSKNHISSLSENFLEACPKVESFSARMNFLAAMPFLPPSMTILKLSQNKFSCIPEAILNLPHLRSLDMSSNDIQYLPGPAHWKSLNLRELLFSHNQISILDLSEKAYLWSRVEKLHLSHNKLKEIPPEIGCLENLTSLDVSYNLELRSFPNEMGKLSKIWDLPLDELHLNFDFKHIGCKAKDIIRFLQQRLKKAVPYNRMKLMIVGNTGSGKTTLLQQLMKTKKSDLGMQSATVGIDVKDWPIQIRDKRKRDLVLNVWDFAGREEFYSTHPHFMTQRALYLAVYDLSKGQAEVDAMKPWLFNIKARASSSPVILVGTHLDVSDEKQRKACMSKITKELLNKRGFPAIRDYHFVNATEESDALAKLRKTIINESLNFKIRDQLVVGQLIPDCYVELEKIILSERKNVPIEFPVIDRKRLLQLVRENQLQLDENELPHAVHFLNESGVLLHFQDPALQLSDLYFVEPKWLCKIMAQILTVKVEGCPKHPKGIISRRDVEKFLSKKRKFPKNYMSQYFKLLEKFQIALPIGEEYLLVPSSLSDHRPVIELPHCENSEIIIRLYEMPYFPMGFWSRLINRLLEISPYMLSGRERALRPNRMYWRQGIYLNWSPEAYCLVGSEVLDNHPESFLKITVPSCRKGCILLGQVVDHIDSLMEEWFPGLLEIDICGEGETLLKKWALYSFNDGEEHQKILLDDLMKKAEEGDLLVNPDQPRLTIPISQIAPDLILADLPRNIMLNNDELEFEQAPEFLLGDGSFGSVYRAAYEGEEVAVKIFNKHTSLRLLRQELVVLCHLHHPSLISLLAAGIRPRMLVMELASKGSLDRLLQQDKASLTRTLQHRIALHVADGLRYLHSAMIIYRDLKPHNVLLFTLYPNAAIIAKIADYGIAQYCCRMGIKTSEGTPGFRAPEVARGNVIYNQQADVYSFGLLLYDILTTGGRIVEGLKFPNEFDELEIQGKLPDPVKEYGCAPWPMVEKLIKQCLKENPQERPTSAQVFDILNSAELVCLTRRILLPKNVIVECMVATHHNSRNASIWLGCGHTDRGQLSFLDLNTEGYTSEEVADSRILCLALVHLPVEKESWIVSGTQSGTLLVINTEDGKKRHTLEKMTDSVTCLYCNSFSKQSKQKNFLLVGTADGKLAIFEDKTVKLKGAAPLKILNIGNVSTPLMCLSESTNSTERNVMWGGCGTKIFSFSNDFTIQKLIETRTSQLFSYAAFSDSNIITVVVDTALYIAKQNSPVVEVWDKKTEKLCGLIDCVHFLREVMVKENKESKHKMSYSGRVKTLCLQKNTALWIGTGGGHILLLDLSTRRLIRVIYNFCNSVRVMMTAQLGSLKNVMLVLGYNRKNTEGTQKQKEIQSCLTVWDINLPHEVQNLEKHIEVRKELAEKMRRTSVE
# TEST_SUMMARY: LRRK2 Kinase Activity Assay (LanthaScreen TR-FRET), wild type
# Format: biochemical
# CONDITION_CONTEXT: recombinant wild type LRRK2, 25 μM ATP, 400 nM LRRKtide, 60 min; class symbols
pIC50: −log10 of the molar value.
ASSAY_READOUT: pIC50

Recorded pIC50 for COc1c(C#N)cnc2c1CCC[C@@H]2Nc1ccc2[nH]nc(-c3cnco3)c2c1 (single isomer, unassigned) [Example 146, enantiomer 1] with LRRK2 WT (Homo sapiens, UniProt Q5S007), please?
6.00 to 7.00

Recorded pIC50 for COc1n[nH]c2ccc(O[C@H]3CCc4cc(C#N)c(Br)nc43)cc12 (single isomer, unassigned) [187, enantiomer 1] with LRRK2 WT (Homo sapiens, UniProt Q5S007), please?
> 7.00

Recorded pIC50 for N#Cc1ccc2c(c1F)CC[C@@H]2Nc1ccc2[nH]nc(-c3cnco3)c2c1 (single isomer, unassigned) [Example 26, enantiomer 2] with LRRK2 WT (Homo sapiens, UniProt Q5S007), please?
> 7.00

Recorded pIC50 for N#Cc1ccc2c(c1)CCC[C@@H]2Oc1ccc2[nH]nc(-c3cnoc3)c2c1 (single isomer, unassigned) [Example 17, enantiomer 1] with LRRK2 WT (Homo sapiens, UniProt Q5S007), please?
> 7.00

Recorded pIC50 for N#Cc1ccc2c(n1)CCC[C@H]2Oc1ccc2[nH]nc(C3CC3)c2c1 (single isomer, unassigned) [Example 133, enantiomer 1] with LRRK2 WT (Homo sapiens, UniProt Q5S007), please?
5.00 to 6.00

----------
# TESTED_SYSTEM: LRRK2 WT (Homo sapiens, UniProt Q5S007)
# Construct: purchased Life Technologies PR8604B
# TEST_SUMMARY: LRRK2 Kinase Activity Assay (LanthaScreen TR-FRET), wild type
# Type: biochemical
# CONDITION_CONTEXT: recombinant wild type LRRK2, 25 μM ATP, 400 nM LRRKtide, 60 min; class symbols
pIC50: −log10 of the molar value.
pIC50 values for the molecules below.

// solved cases for pIC50 follow
| MOLECULE | pIC50 |
| --- | --- |
| COc1n[nH]c2ccc(O[C@H]3CCCc4cc(C#N)c(Br)nc43)cc12 (single isomer, unassigned) [188, enantiomer 1] | > 7.00 |
| N#Cc1cnc2c(c1)CCC[C@@H]2Nc1ccc2[nH]nc(Br)c2c1 (single isomer, unassigned) [Example 125, enantiomer 1] | 6.00 to 7.00 |
| CC1(C)Cc2cc(C#N)cnc2[C@H]1Nc1ccc2[nH]nc(-c3cnco3)c2c1 (single isomer, unassigned) [Example 172, enantiomer 2] | > 7.00 |

Recorded pIC50 for N#Cc1cnc2c(c1)CCC[C@@H]2Oc1ccc2[nH]nc(-c3cnoc3)c2c1 (single isomer, unassigned) [Example 2, enantiomer 1] with LRRK2 WT (Homo sapiens, UniProt Q5S007), please?
> 7.00

Recorded pIC50 for N#Cc1nc2c(o1)CCC2Nc1ccc2[nH]nc(-c3cnco3)c2c1 (single isomer, unassigned) [Example 36, enantiomer 1] with LRRK2 WT (Homo sapiens, UniProt Q5S007), please?
5.00 to 6.00

Recorded pIC50 for N#Cc1cc2c(nc1Cl)[C@@H](Nc1ccc3[nH]nc(-c4cnco4)c3c1)CCC2 (single isomer, unassigned) [Example 112, enantiomer 1] with LRRK2 WT (Homo sapiens, UniProt Q5S007), please?
6.00 to 7.00

Recorded pIC50 for N#Cc1ccc2c(c1)C1(CC1)C[C@@H]2Nc1ccc2[nH]nc(-c3cnco3)c2c1 (single isomer, unassigned) [Example 140, enantiomer 1] with LRRK2 WT (Homo sapiens, UniProt Q5S007), please?
6.00 to 7.00

Recorded pIC50 for N#Cc1cnc2c(c1)CCC[C@@H]2Nc1ccc2[nH]nc(-c3cnn(C(F)F)c3)c2c1 (single isomer, unassigned) [Example 49, enantiomer 2] with LRRK2 WT (Homo sapiens, UniProt Q5S007), please?
6.00 to 7.00

Recorded pIC50 for N#Cc1ccc2c(c1)OCC[C@@H]2Nc1ccc2[nH]nc(-c3cnco3)c2c1 (single isomer, unassigned) [191, enantiomer 1] with LRRK2 WT (Homo sapiens, UniProt Q5S007), please?
6.00 to 7.00

Recorded pIC50 for Cc1cc(C#N)cc2c1[C@@H](Nc1ccc3[nH]nc(-c4cnco4)c3c1)CC2 (single isomer, unassigned) [Example 131, enantiomer 2] with LRRK2 WT (Homo sapiens, UniProt Q5S007), please?
> 7.00

Recorded pIC50 for N#Cc1cccc2c1[C@@H](Oc1ccc3[nH]nc(-c4cnco4)c3c1)CC2 (single isomer, unassigned) [Example 37, enantiomer 1] with LRRK2 WT (Homo sapiens, UniProt Q5S007), please?
> 7.00

Recorded pIC50 for Cc1c(C#N)c(Cl)nc2c1CC[C@@H]2Oc1ccc2[nH]nc(-c3cnco3)c2c1 (single isomer, unassigned) [Example 166, enantiomer 2] with LRRK2 WT (Homo sapiens, UniProt Q5S007), please?
> 7.00

Recorded pIC50 for CCc1cc(-c2n[nH]c3ccc(O[C@@H]4CCCc5cc(C#N)cnc54)cc23)ccn1 (single isomer, unassigned) [Example 121, enantiomer 1] with LRRK2 WT (Homo sapiens, UniProt Q5S007), please?
> 7.00

Recorded pIC50 for Cc1ncc(-c2n[nH]c3ccc(O[C@H]4CCc5cc(C#N)c(F)cc54)cc23)o1 (single isomer, unassigned) [Example 160, enantiomer 2] with LRRK2 WT (Homo sapiens, UniProt Q5S007), please?
> 7.00
